The measured values listed here are drawn from patent US20150315188A1.

Test system Human adrenergic α2A receptor (Homo sapiens, UniProt P08913), pKi listed for each of the compounds.
Please report pKi as the negative decimal logarithm of the molar concentration, giving only the number.

>>> reading("Cc1cc(C)c2c(c1)c1c(n2CC(C)(O)c2cccnc2)CCN2CCCC12 (single isomer, unassigned) [44a]")
6.94
>>> reading("Cc1ccc2c(c1)c1c(n2CC(C)(O)c2ccncc2)CCN2CCCC12 (single isomer, unassigned) [13b]")
7.89

The observed pKi for Cc1ccc2c(c1F)c1c(n2CC(C)(O)c2cccnc2)CCN2CCCC12 (single isomer, unassigned) [87d] when tested with Human adrenergic α2A receptor (Homo sapiens, UniProt P08913) stands at 7.26

Query Cc1cc(C)c2c(c1)c1c(n2CC(C)(O)c2ccncc2)CCN2CCCC12 (single isomer, unassigned) [19b] on Human adrenergic α2A receptor (Homo sapiens, UniProt P08913); pKi returned: 7.44

Observed pKi on Human adrenergic α2A receptor (Homo sapiens, UniProt P08913), entry Cc1ccc2c(c1)c1c(n2CC(OCC2CCC2)c2ccncc2)CCN(C)C1 (single isomer, unassigned) [59a] , equals 8.00

pKi for Human adrenergic α2A receptor (Homo sapiens, UniProt P08913) with input Cc1cc(Cl)c2c(c1)c1c(n2CC(C)(O)c2ccncc2)CCN2CCCC12 (single isomer, unassigned) [91a] equals 8.06

I looked up Cc1ccc2c(c1)c1c(n2CC(C)(O)c2ccc(F)nc2)CCN2CCCC12 (single isomer, unassigned) [6a] and its pKi for Human adrenergic α2A receptor (Homo sapiens, UniProt P08913) was 7.26

----------
Molecular target: Human adrenergic α2A receptor (Homo sapiens)
Sequence (P08913 whole entry): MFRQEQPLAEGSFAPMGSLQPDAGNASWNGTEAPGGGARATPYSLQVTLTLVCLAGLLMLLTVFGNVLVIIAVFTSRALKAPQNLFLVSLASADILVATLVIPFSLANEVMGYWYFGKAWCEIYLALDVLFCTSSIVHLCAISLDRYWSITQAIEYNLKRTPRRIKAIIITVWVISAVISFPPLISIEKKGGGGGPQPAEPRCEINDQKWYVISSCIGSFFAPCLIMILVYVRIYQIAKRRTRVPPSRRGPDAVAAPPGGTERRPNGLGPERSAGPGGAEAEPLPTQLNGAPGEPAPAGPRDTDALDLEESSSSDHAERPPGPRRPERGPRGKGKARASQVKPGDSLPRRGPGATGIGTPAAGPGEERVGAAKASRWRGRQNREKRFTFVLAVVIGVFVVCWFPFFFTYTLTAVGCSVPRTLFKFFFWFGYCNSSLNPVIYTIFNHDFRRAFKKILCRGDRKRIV
Test: Radioligand binding, adrenergic α2A (Protocol Group B)
Parameters: purchased Milipore (Millipore)
Details: 0.1 μM compound; Protocol Group B; 0.1 µM
Method: To evaluate the activity of compounds in radioligand binding assays, Human adrenergic α2A receptor obtained from recombinant cell membrane from Milipore. Binding experiments were carried out in Tris-HCl buffer (50 mM Tris-HCl buffer, pH 7.4, 5 mM Mgcl2, 1 mM Cacl2, 0.2% BSA) as recommended by Milipore. […] Receptor proteins were harvested on 0.33% PEI(poly-ethylenemine) soaked GFC filter mat, the specifically bound [^3H]MK-912 were counted to determine total binding. […]
Measured quantity: Percentage inhibition of ligand binding, Adrenergic α2A (0.1 μM) (%)
Please state the figure in %; there is no need to write the unit.

Recorded Percentage inhibition of ligand binding, Adrenergic α2A (0.1 μM), per entry:
>>> reading("Cc1ccc2c(c1)c1c(n2CC(O)c2ccccn2)CC2CCCN2C1 (single isomer, unassigned) [45b]")
"−3"
>>> reading("Cc1ccc2c(c1)c1c(n2CC(O)c2ccncc2F)CCN2CCCC12 (single isomer, unassigned) [14b]")
80
>>> reading("Cc1cc(F)cc2c3c(n(CC(C)(O)c4ccncc4)c12)CC1CCCN1C3 (single isomer, unassigned) [78b]")
"−7"
>>> reading("Cc1cc2c3c(n(CC(C)(O)c4ccncc4)c2cc1Cl)CCN1CCCC31 (single isomer, unassigned) [50c]")
22
>>> reading("Cc1ccc2c(c1)c1c(n2CC(C)(O)c2ccc(F)cc2)CC2CCC1N2C (single isomer, unassigned) [102a]")
"−8"
>>> reading("Cc1cc(F)c2c(c1)c1c(n2CC(C)(O)c2ccncc2)CCN2CCCC12 (single isomer, unassigned) [81b]")
68
>>> reading("CC(O)(Cn1c2c(c3cc(F)cc(Cl)c31)C1CCCN1CC2)c1ccncc1 (single isomer, unassigned) [88b]")
19
>>> reading("CC(O)(Cn1c2c(c3cc(F)cc(Cl)c31)C1CCCN1CC2)c1cccnc1 (single isomer, unassigned) [89c]")
24

For record Cc1cc(F)c2c(c1)c1c(n2CC(O)c2ccncc2)CCN2CCCC12 (single isomer, unassigned) [137b] the listed Percentage inhibition of ligand binding, Adrenergic α2A (0.1 μM) is 94

Entry Cc1cc(F)cc2c3c(n(CC(O)c4ccncc4)c12)CCN1CCCC31 (single isomer, unassigned) [136a] , Percentage inhibition of ligand binding, Adrenergic α2A (0.1 μM) reported as 69

Documented Percentage inhibition of ligand binding, Adrenergic α2A (0.1 μM) of Cc1ccc2c(c1)c1c(n2CC(O)c2ccccn2)CC2CCCN2C1 (single isomer, unassigned) [45c] : 0

// Percentage inhibition of ligand binding, Adrenergic α2A (0.1 μM) value for CC(O)(Cn1c2c(c3cc(Cl)cc(F)c31)C1CCCN1CC2)c1ccncc1 (single isomer, unassigned) [52c] : 7

----------
Documented inhibition at 0.03 µM across a set of molecules
Target: Human adrenergic α2B receptor (Homo sapiens)
Sequence (P18089 whole entry): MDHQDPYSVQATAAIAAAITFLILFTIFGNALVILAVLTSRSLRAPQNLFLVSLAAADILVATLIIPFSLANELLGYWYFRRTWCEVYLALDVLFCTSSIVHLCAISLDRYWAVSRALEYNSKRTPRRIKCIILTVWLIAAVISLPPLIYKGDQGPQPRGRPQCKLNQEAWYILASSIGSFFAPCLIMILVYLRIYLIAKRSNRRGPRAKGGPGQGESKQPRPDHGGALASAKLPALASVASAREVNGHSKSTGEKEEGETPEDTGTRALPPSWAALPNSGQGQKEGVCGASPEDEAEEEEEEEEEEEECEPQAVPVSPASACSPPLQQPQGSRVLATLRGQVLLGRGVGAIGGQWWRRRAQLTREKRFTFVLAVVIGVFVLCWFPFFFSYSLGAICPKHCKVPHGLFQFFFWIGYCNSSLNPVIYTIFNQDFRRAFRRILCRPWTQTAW
Assay: Radioligand binding, adrenergic α2B (Protocol Group B)
Parameters: purchased Milipore (Millipore)
Settings: 30 nM compound; Protocol Group B; read-out: Percentage inhibition of ligand binding, Adrenergic α2B (30 nM)
Write the answer as a number in %, unit excluded.

# count of solved cases: 3
>>> reading("CC(O)(Cn1c2c(c3cc(Cl)cc(F)c31)C1CCCN1CC2)c1cccnc1 (single isomer, unassigned) [53a]")
97
>>> reading("Cc1ccc2c(c1)c1c(n2CC(O)c2ccncc2)CC[N+]2([O-])CCCC12 (centres unmarked) [compound 23]")
88
>>> reading("Cc1ccc2c(c1)c1c(n2CC(O)c2cccnc2)C(F)(F)CN(C)C1 (centres unmarked) [compound 30]")
8

The value of inhibition at 0.03 µM measured for the molecule Cc1ccc2c(c1)c1c(n2CC(OCC2CCC2)c2ccncc2)CCN(C)C1 (centres unmarked) [59b] turned out to be 97

For record CC(O)(Cn1c2c(c3cc(Cl)cc(F)c31)C1CCCN1CC2)c1ccncc1 (single isomer, unassigned) [52d] the listed inhibition at 0.03 µM is 6

Looking up Cc1ccc2c(c1)c1c(n2CC(C)(O)c2ccc(C(=O)N(C)CC3CC3)nc2)CCN(C)C1 (centres unmarked) [compound 33] , I see its inhibition at 0.03 µM listed as 8

Looking up Cc1cc2c3c(n(CC(O)c4ccncc4)c2cc1Cl)CCN1CCCC31 (centres unmarked) [compound 21] , I see its inhibition at 0.03 µM listed as 96

Record Cc1cc(C)c2c(c1)c1c(n2CC(O)C2CCCCC2)CCN2CCCC12 (centres unmarked) [141a] , field inhibition at 0.03 µM: 93

response.value for CN1CCc2c(c3cccc(Cl)c3n2CC(O)c2cccnc2)C1 (centres unmarked) [compound 20] (field: inhibition at 0.03 µM) = 35

Measured inhibition at 0.03 µM, CC(O)(Cn1c2c(c3cc(F)cc(Cl)c31)C1CCCN1CC2)c1ccncc1 (single isomer, unassigned) [88a] : 93

get_value(item= Cc1cc(F)cc2c3c(n(CC(O)c4ccncc4)c12)CCN1CCCC31 (single isomer, unassigned) [136a] , readout=inhibition at 0.03 µM) returns 95

Cc1ccc2c(c1)c1c(n2CC(C)(O)c2ccnc(F)c2)CCN2CCCC12 (single isomer, unassigned) [48a] has a reported inhibition at 0.03 µM of 94

# inhibition at 0.03 µM (molecule: Cc1ccc2c(c1)c1c(n2CC(C)(O)c2ccc(N(C)C)nc2)CCN(C)C1 (centres unmarked) [compound 39] ) is 35

According to the records, this molecule Cc1ccc2c(c1)c1c(n2CC(C)(O)c2cnccc2F)CCN(C)C1 (centres unmarked) [compound 40] displays inhibition at 0.03 µM of 44

The molecule listed as Cc1ccc2c(c1)c1c(n2CC(O)c2ccncc2)CNC2CCCC12 (single isomer, unassigned) [34c] shows inhibition at 0.03 µM equal to 80

Kindly note the recorded inhibition at 0.03 µM for CC(O)(Cn1c2c(c3cc(C(F)(F)F)ccc31)CN1CCCC1C2)c1cccnc1 (centres unmarked) [85b] , which is -5

The value of inhibition at 0.03 µM measured for the molecule CCCOC(Cn1c2c(c3cc(C)ccc31)CN(C)CC2)c1ccncc1 (single isomer, unassigned) [42a] turned out to be 89

----------
Parameter: Percentage inhibition of ligand binding, Adrenergic α1B (0.3 μM). Scope: all listed entries.
Biological target: Human adrenergic α1B receptor (Homo sapiens, UniProt P35368)
Sequence (P35368 1-520): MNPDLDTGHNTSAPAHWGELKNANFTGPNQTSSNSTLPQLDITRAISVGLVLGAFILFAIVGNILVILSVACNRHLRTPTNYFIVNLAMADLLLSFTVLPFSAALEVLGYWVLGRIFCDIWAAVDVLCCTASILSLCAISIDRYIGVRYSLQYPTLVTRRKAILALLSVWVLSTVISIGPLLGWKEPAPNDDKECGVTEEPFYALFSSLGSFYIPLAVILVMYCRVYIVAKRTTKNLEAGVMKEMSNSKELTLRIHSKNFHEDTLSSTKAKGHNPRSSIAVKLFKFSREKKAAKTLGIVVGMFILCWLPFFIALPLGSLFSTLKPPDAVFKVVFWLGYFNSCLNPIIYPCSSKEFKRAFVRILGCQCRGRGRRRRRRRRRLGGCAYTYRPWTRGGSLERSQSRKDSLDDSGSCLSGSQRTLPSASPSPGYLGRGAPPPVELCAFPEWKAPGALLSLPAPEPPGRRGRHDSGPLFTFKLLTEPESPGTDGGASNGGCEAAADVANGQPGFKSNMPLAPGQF
Assay: Radioligand binding, adrenergic α1B (Protocol Group B)
Design: purchased Milipore (Millipore)
Conditions: 0.3 μM compound; Protocol Group B; 0.3 µM
Protocol: To evaluate the activity of compounds in radioligand binding assays, Human adrenergic α1B receptor obtained from recombinant cell membrane from Milipore. Binding experiments were carried out in Tris-HCl buffer (50 mM Tris-HCl buffer, pH 7.4, 10 mM Mgcl2, 1 mM EDTA) as recommended by Milipore. […] Receptor proteins were harvested on 0.33% PEI(poly-ethylenemine) soaked GFC filter mat, the specifically bound [^3H]Prazosin were counted to determine total binding. […]
The figure you give is taken to be in %; do not add the unit.

Examples with their reported Percentage inhibition of ligand binding, Adrenergic α1B (0.3 μM) follow.
>>> reading("Cc1ccc2c(c1)c1c(n2CC(O)c2ccccn2)CC2CCCN2C1 (single isomer, unassigned) [45a]")
35
>>> reading("OC(Cn1c2c(c3cc(F)ccc31)C1CCCN1CC2)c1ccncc1 (single isomer, unassigned) [18c]")
6
>>> reading("CC(O)(Cn1c2c(c3cc(Cl)cc(F)c31)CN1CCCC1C2)c1ccncc1 (single isomer, unassigned) [86a]")
30
>>> reading("Cc1ccc2c(c1)c1c(n2CC(O)c2ccncc2)CN(C)C2CCCC12 (single isomer, unassigned) [36b]")
5
>>> reading("CCOC(Cn1c2c(c3cc(C)ccc31)CN(C)CC2)c1ccncc1 (single isomer, unassigned) [43a]")
55
>>> reading("Cc1cc(F)c2c(c1)c1c(n2CC(C)(O)c2ccncc2)CC2CCCN2C1 (single isomer, unassigned) [62c]")
15
>>> reading("CN1CCc2c(c3cc(C(F)(F)F)ccc3n2CC(OC2CCCC2)c2ccncc2)C1 (single isomer, unassigned) [60b]")
8
>>> reading("Cc1cc(F)cc2c3c(n(CC(C)(O)c4ccncc4)c12)CC1CCCN1C3 (single isomer, unassigned) [78a]")
12

Entry Cc1cc(C)c2c(c1)c1c(n2CC(C)(O)c2ccncc2)CCN2CCCC12 (single isomer, unassigned) [19c] — recorded Percentage inhibition of ligand binding, Adrenergic α1B (0.3 μM) = −1

Reported Percentage inhibition of ligand binding, Adrenergic α1B (0.3 μM) of Cc1cc(F)cc2c3c(n(CC(C)(O)c4cccnc4)c12)CCN1CCCC31 (single isomer, unassigned) [75d] : 33

Percentage inhibition of ligand binding, Adrenergic α1B (0.3 μM) for Cc1ccc2c(c1)c1c(n2CC(O)c2cccnc2)CC2CCCN2C1 (single isomer, unassigned) [27b] is 41
